# assaySystem: T1, EGFRvIII amino acid residues 15 to 37 with Lys37 to Ala mutation (human)
# T1 construct: mutation is already in the entry
# T1 peptide: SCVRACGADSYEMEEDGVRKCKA
# assayProtocol: yeast display flow cytometry, Myc-normalized;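 further: Anti-EGFRvIII monoclonal antibodies tested by flow cytometry on yeast displaying alanine-substituted fragments, two-color indirect fluorescence with anti-Myc signal tracking fusion protein expression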
testReadout: % of binding vs wild-type fragment 15-37 (%)
Write down the numeric answer in % and omit the unit.

Consider the binder F263-4B3 (antibody, V domains shown, Mouse hybridoma mAb) VH: EVQLQQSGPELVKPGSSVKISCKASGYTFTDYNMDWVKQSHGKSLEWIGTINPNNGGTSYNQKFKGKATLTVDKSSNTAYMELRSLTSEDSAVYYCARGYDYDLWFAYWGQGTLVTVSA VL: EIVLTQSPALMAASPGEKVTITCSVSSSISSSNLHWYQQKSETSPKPWIYGTSNLASGVPVRFSGSGSGTSYSLTISSMEAEDAATYYCQQWSSYPLTFGAGTKLELE . State its measured % of binding vs wild-type fragment 15-37. 170
